Test system: CAMK1G
Details: concentration: 1 μM, replicates: in singlicate; n = 1;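 note: KINOMEscan kinase panel screen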
Measured %Inh, listed per entry.
Report the value in % with no unit label.

Consider the molecule `CC(C)c1nc(-c2ccc(F)c(NS(=O)(=O)c3c(F)cccc3F)c2)c(-c2ccnc(Nc3ccc(N4CCOCC4)nc3)n2)s1` . State its measured %Inh.
4

Consider the molecule `COc1cc(Nc2nccc(N3CCC(NS(=O)(=O)c4ccc(NC(C)=O)cc4)CC3)n2)cc(OC)c1OC` . State its measured %Inh.
5

Consider the molecule `COc1cc(Nc2ccnc3cc(-c4ccncc4)ccc23)cc(OC)c1OC.Cl` . State its measured %Inh.
9

Consider the molecule `O=C(Nc1n[nH]c2nc(-c3ccccc3)ccc12)C1CC1` . State its measured %Inh.
79

Next up:
Consider the molecule `Nc1cccc(-c2ccc3c(N)n[nH]c3c2)c1` . State its measured %Inh.
4

----------
Tested on: RAF1
Conditions: concentration: 1 μM, replicates: in singlicate; n = 1
Measured %Inh, listed per entry.
Report the value in % with no unit label.

Consider the compound `c1ccc(Oc2ccc(Nc3ccnc4cc(-c5ccc(CN6CCCCC6)o5)ccc34)cc2)nc1` . State its measured %Inh.
0

Consider the compound `COC(=O)Nc1nc2ccc(Oc3ccc(NC(=O)Nc4cc(C(F)(F)F)ccc4F)cc3)cc2[nH]1.Cl` . State its measured %Inh.
91.3

Consider the compound `Cc1ccc(O)cc1Nc1ccnc2ccc(C(C)(C)C)cc12` . State its measured %Inh.
14

Consider the compound `N#Cc1cnc2cc(-c3cnc(CNCCN4CCOCC4)s3)ccc2c1Nc1ccc(Oc2ccccc2)cc1` . State its measured %Inh.
0

Consider the compound `N#CC1(c2cccc(C(=O)Nc3cccc(Oc4ccc5nc(NC(=O)C6CC6)sc5n4)c3)c2)CC1` . State its measured %Inh.
100

Consider the compound `Nc1ncc(-c2cn[nH]c2)c2scc(-c3ccc4c(c3)CCN4C(=O)Cc3ccccc3)c12` . State its measured %Inh.
0

Next up:
Consider the compound `CN(c1ccc2c(c1)nc(NCc1ccccc1)n2C)c1ccnc(Nc2ccc(CS(C)(=O)=O)cc2)n1.Cl` . State its measured %Inh.
97.5

----------
Measured %Inh, listed per entry.
System: PIM2
Conditions: concentration: 1 μM, replicates: in singlicate; n = 1
A complete answer gives the number and then names the unit.

# return %Inh for CCn1c(-c2nonc2N)nc2c(-c3ccccc3)ncc(OCCCN)c21.O=C(O)C(F)(F)F.O=C(O)C(F)(F)F [GSK260205] , test system: PIM2
2%

# return %Inh for Nc1ncnc2scc(-c3ccc(NC(=O)Cc4cc(F)ccc4F)cc3)c12.O=C(O)C(F)(F)F [SB-731254-M] , test system: PIM2
0%

# return %Inh for CC(C)c1nc(-c2cccc(NS(=O)(=O)c3c(F)cccc3F)c2)c(-c2ccnc(Nc3ccc(N4CCOCC4)nc3)n2)s1.Cl [GSK1723980] , test system: PIM2
0%

# return %Inh for Cn1cc(-c2ccc3c(c2)CCN3C(=O)Cc2cc(F)cc(F)c2F)c2c(N)ncnc21 [GSK2634140] , test system: PIM2
0%

More entries:
# return %Inh for CN(c1ccc(NC(=O)N2CCN(CCCN3CCOCC3)CC2)cc1)c1ccnc(Nc2ccc(CS(C)(=O)=O)cc2)n1.Cl [GW830899] , test system: PIM2
0%

# return %Inh for `CN(c1ccc(F)c(NC(=O)c2cccc(OC(C)(C)C#N)c2Cl)c1)c1ccc2nc(NC(=O)C3CC3)sc2n1` , test system: PIM2
14%

# return %Inh for CN(C)CCNS(=O)(=O)c1ccc(-c2ccnc3[nH]ccc23)cc1 [GSK977620] , test system: PIM2
0%

# return %Inh for Cl.Cl.NCC(NC(=O)c1cc(-c2cccnc2)c(-c2ccnc3[nH]ccc23)s1)c1ccccc1 (stereo not shown) [GSK1323434] , test system: PIM2
0%

# return %Inh for COc1cc(Nc2nccc(N3CCC(NC(=O)Nc4ccc5c(c4)OCO5)C3)n2)cc(OC)c1OC (stereo not shown) [GSK1379766] , test system: PIM2
0%

----------
System: YSK1
Construct: gene STK25
Details: concentration: 1 μM, replicates: in singlicate; n = 1
measuredEndpoint: %Inh (%)
Report the value in % with no unit label.

Solved entries (count: 3):
Consider the compound `COc1ccc(C)c(Nc2ccnc(Nc3ccc(-c4cnc[nH]4)cc3)n2)c1.Cl` . State its measured %Inh.
0

Consider the compound `O=C(Nc1n[nH]c2nc(-c3ccccc3)ccc12)C1CC1` . State its measured %Inh.
0

Consider the compound `Cl.O=C(Nc1ccc(Oc2ccc3[nH]c(NC(=O)c4ccco4)nc3c2)cc1)Nc1cc(C(F)(F)F)ccc1F` . State its measured %Inh.
0

More entries:
Consider the compound `O=C1NC(=O)C(c2ccccc2Cl)=C1Nc1cccc(Cl)c1` . State its measured %Inh.
15

Consider the compound NCCC(NC(=O)c1cc(Br)c(-c2ccnc3[nH]ccc23)s1)c1ccccc1.O=C(O)C(F)(F)F.O=C(O)C(F)(F)F (centres unmarked) . State its measured %Inh.
4

Consider the compound `CN(C)CCOc1ccc(-c2cc(-c3ccc(Cl)c(O)c3)c(-c3ccncc3)[nH]2)cc1.Cl.Cl` . State its measured %Inh.
13

Consider the compound `Cc1cccc(Nc2nc(NCCN)ncc2C(N)=O)c1` . State its measured %Inh.
31

Consider the compound `CN(c1ccc2c(c1)nc(NCc1ccccc1)n2C)c1ccnc(Nc2ccc(CS(C)(=O)=O)cc2)n1.Cl` . State its measured %Inh.
0

----------
Measured %Inh, listed per entry.
Test system: RSK4(Kin.Dom.2-C-terminal)
Construct: gene RPS6KA6
Conditions: concentration: 1 μM, replicates: in singlicate; n = 1
Report the value in % with no unit label.

Solved entries (count: 4):
Consider the compound Cc1nn2c(=O)cc(N3CCO[C@H](C)C3)nc2n1Cc1cccc(Cl)c1Cl [GSK2373693] . State its measured %Inh.
0

Consider the compound Cc1cc(-c2c(-c3ccc(F)cc3)ncn2CCCN2CCOCC2)nc(N)n1 [SB-222517] . State its measured %Inh.
0

Consider the compound N#Cc1cnc2cc(-c3cnc(CNCCN4CCOCC4)s3)ccc2c1Nc1ccc(Oc2ccccc2)cc1 [GW664114] . State its measured %Inh.
14

Consider the compound O=C(Nc1n[nH]c2nc(-c3cccc(O)c3)ccc12)C1CC1 [SB-711805] . State its measured %Inh.
14

More entries:
Consider the compound `CCNc1nccc(-c2c(-c3ccc(F)cc3)ncn2C2CCN(C)CC2)n1` . State its measured %Inh.
64

Consider the compound Nc1ncc(-c2ccc3nccc(-c4ccncc4)c3c2)cc1S(=O)(=O)N1CCCCC1 [GSK1693850] . State its measured %Inh.
50

Consider the compound Cl.Cl.NC(CNC(=O)c1cc(Br)c(-c2ccnc3[nH]ccc23)s1)c1ccccc1 (stereo not drawn) [GSK1322949] . State its measured %Inh.
16

Consider the compound Nc1cccc(-c2ccc3c(N)n[nH]c3c2)c1 [GSK2193613] . State its measured %Inh.
25

Consider the compound Fc1cc(Cl)ccc1Nc1ccnc2cc(-c3ccc(CN4CCSCC4)o3)ccc12 [GW560106] . State its measured %Inh.
87

----------
Tested on: MST3
Construct: gene STK24
Details: concentration: 1 μM, replicates: in singlicate; n = 1
Measured %Inh, listed per entry.

Solved entries (count: 2):
Consider the compound COc1cc(Nc2ccnc3cc(-c4ccncc4)ccc23)cc(OC)c1OC.Cl [GW494610] . State its measured %Inh.
0%

Consider the compound CN(c1ccc(NC(=O)N2CCN(CCCN3CCOCC3)CC2)cc1)c1ccnc(Nc2ccc(CS(C)(=O)=O)cc2)n1.Cl [GW830899] . State its measured %Inh.
0%

Next up:
Consider the compound CC(C)c1nc(-c2cccc(NS(=O)(=O)c3c(F)cccc3F)c2)c(-c2ccnc(Nc3ccc(N4CCOCC4)nc3)n2)s1.Cl [GSK1723980] . State its measured %Inh.
13%

----------
Test system: TSSK1B
Conditions: concentration: 1 μM, replicates: in singlicate; n = 1
Measured %Inh, listed per entry.
Report the value in % with no unit label.

Consider the compound COc1cc(Nc2nccc(N3CCC(NC(=O)Nc4ccc5c(c4)OCO5)C3)n2)cc(OC)c1OC (centres unmarked) . State its measured %Inh.
8

More entries:
Consider the compound `COc1cccc2c(-c3ccncc3)c(-c3ccc(F)cc3)nn12` . State its measured %Inh.
49

Consider the compound `O=C1NC(=O)C(c2ccccc2Cl)=C1Nc1cccc(Cl)c1` . State its measured %Inh.
100

Consider the compound `N#Cc1cnc2cc(-c3cnc(CNCCN4CCOCC4)s3)ccc2c1Nc1ccc(Oc2ccccc2)cc1` . State its measured %Inh.
1

Consider the compound `Cl.O=C(Nc1ccc(Oc2ccc3[nH]c(NC(=O)c4ccco4)nc3c2)cc1)Nc1cc(C(F)(F)F)ccc1F` . State its measured %Inh.
0

Consider the compound Cl.Cl.NC(CNC(=O)c1cc(Br)c(-c2ccnc3[nH]ccc23)s1)c1ccccc1 (centres unmarked) . State its measured %Inh.
7

Consider the compound `COc1cccc(CC(=O)N2CCc3cc(-c4cn(C)c5ncnc(N)c45)ccc32)c1` . State its measured %Inh.
29

Consider the compound `CN1CCN(Cc2ccc(NC(=O)Nc3ccc(N(C)c4ccnc(Nc5ccc(CS(C)(=O)=O)cc5)n4)cc3)cc2)CC1.Cl` . State its measured %Inh.
0

Consider the compound `COc1cccc(NC(=O)NCCNc2ccnc(Nc3ccc(F)cc3)n2)c1` . State its measured %Inh.
0

Consider the compound `COc1ccc(NC(=O)c2ccoc2)cc1-c1ccc(C(=O)NCC2CC2)cc1` . State its measured %Inh.
0

Consider the compound `CN(C)c1ncnc2nc[nH]c12` . State its measured %Inh.
0

Consider the compound `Cn1cc(-c2ccc3c(c2)CCN3C(=O)Cc2cc(F)cc(C(F)(F)F)c2)c2c(N)ncnc21` . State its measured %Inh.
0

Consider the compound `Nc1ncc(-c2cn[nH]c2)c2scc(-c3ccc4c(c3)CCN4C(=O)Cc3ccccc3)c12` . State its measured %Inh.
3

Consider the compound `CSc1ccc(NC2=C(c3ccc(Cl)cc3)C(=O)NC2=O)cc1` . State its measured %Inh.
3

Consider the compound `CC(=O)Nc1cn2nc(Oc3cccc(NC(=O)c4cccc(C(F)(F)F)c4)c3)ccc2n1` . State its measured %Inh.
8

Consider the compound `Cc1ccc(O)cc1Nc1ccnc2ccc(C(C)(C)C)cc12` . State its measured %Inh.
1

Consider the compound `c1ccc(Oc2ccc(Nc3ccnc4cc(-c5ccc(CN6CCCCC6)o5)ccc34)cc2)nc1` . State its measured %Inh.
6

Consider the compound `CC(C)(C)c1ccc(C(=O)Nc2cn3cc(-n4ccnc4)ccc3n2)cc1` . State its measured %Inh.
0

Consider the compound `Cc1ccc(NC(=O)c2cccc(N3CCCCC3)c2)cc1-c1ccc(C(=O)NCC2CC2)cc1` . State its measured %Inh.
28

Consider the compound `COc1cccc(-c2nc(-c3ccccc3)[nH]c2-c2ccncc2)c1` . State its measured %Inh.
10

Consider the compound `Cn1cc(-c2cnc(N)c3c(-c4ccc5c(c4)CCN5C(=O)Cc4ccccc4)csc23)cn1` . State its measured %Inh.
0

Consider the compound `CN(C)CCOc1ccc(-c2cc(-c3ccc(Cl)c(O)c3)c(-c3ccncc3)[nH]2)cc1.Cl.Cl` . State its measured %Inh.
0

FYI, the data here is from paper PMC5540273.
